# Subject of test: recombinant human or murine heat shock protein 70 (hsp70)
# Type: binding
# Measurement setup: read-out: Kd, heat shock protein-binding domain: RKLFFNLRW; pH 8; read-out: Kd, heat shock protein-binding domain: […]
No end group written: not given here.
Please go through the items and note down their pKd.
In simple prose, pKd is minus the logarithm base ten of a concentration in moles per litre.

Look up pKd for this substance: RKLFFNLRW
4.82

Look up pKd for this substance: SIINFEKLgsgRKLFFNLRW (SIINFEKLGSGRKLFFNLRW; not fully specified; printed as SIINFEKLgsgRKLFFNLRW) [OVA + RKLFFNLRW]
5.15

###

Please go through the items and note down their pKd.
# Subject of test: recombinant human or murine heat shock protein 70 (hsp70)
# Type: binding
# Measurement setup: read-out: Kd, heat shock protein-binding domain: FYQLALTW; pH 8; read-out: Kd, heat shock protein-binding domain: […]
No end group written: not given here.
In simple prose, pKd is minus the logarithm base ten of a concentration in moles per litre.

Look up pKd for this substance: SIINFEKLgsgFYQLALTW (SIINFEKLGSGFYQLALTW; not fully specified; printed as SIINFEKLgsgFYQLALTW) [OVA + FYQLALTW]
5.84

Look up pKd for this substance: FYQLALTW
5.23

###

# Subject of test: recombinant human or murine heat shock protein 70 (hsp70)
# Type: binding
# Measurement setup: read-out: Hybrid antigen comprising epitope: Affinity for hsp70
No end group written: not given here.
Mark rule met only for Kd values smaller than 2000 nM; exact matches and larger values are rule not met.

hey, is Kd for SLYNTVATLGSGNLLRLTGW lower than 2000 nM or not?
rule met

hey, is Kd for AFHHVARELGSGNLLRLTGW lower than 2000 nM or not?
rule not met

hey, is Kd for SLLMWITQVGSGNLLRLTGW lower than 2000 nM or not?
rule not met

hey, is Kd for NLLRLTGWGSGRGYVYQGL lower than 2000 nM or not?
rule met

hey, is Kd for YMDGTMSQVgsgNLLRLTGW lower than 2000 nM or not?
rule met

hey, is Kd for KASEKIFYVGSGNLLRLTGW lower than 2000 nM or not?
rule met

hey, is Kd for ALKHRAYELGSGNLLRLTGW lower than 2000 nM or not?
rule met

hey, is Kd for ILKEPVHGVGSGNLLRLTGW lower than 2000 nM or not?
rule met

hey, is Kd for NLLRLTGWGSGSHNFEKL lower than 2000 nM or not?
rule met

hey, is Kd for AIIRILQQLGSGNLLRLTGW lower than 2000 nM or not?
rule met

hey, is Kd for VIYQYMDDLGSGNLLRLTGW lower than 2000 nM or not?
rule met

hey, is Kd for SVYDFFVWLGSGNLLRLTGW lower than 2000 nM or not?
rule not met

hey, is Kd for GLYDGMEHLGSGNLLRLTGW lower than 2000 nM or not?
rule met

hey, is Kd for IMDQVPFSVgsgNLLRLTGW (IMDQVPFSVGSGNLLRLTGW; not fully specified; printed as IMDQVPFSVgsgNLLRLTGW) lower than 2000 nM or not?
rule met

hey, is Kd for SLFNTVATLGSGNLLRLTGW lower than 2000 nM or not?
rule met

###

Please go through the items and note down their pKd.
# Subject of test: recombinant human or murine heat shock protein 70 (hsp70)
# Type: binding
# Measurement setup: read-out: Kd, heat shock protein-binding domain: HWDFAWPW; pH 8; read-out: Kd, heat shock protein-binding domain: […]
No end group written: not given here.
In simple prose, pKd is minus the logarithm base ten of a concentration in moles per litre.

Look up pKd for this substance: IMDQVPFSVgsgHWDFAWPW (IMDQVPFSVGSGHWDFAWPW; not fully specified; printed as IMDQVPFSVgsgHWDFAWPW)
3.81

Look up pKd for this substance: TLGIVCPIgsgHWDFAWPW (TLGIVCPIGSGHWDFAWPW) [HPV16 E7 (86-93) + HWDFAWPW]
5.04

Look up pKd for this substance: YMDGTMSQVgsgHWDFAWPW (YMDGTMSQVGSGHWDFAWPW)
4.62

Look up pKd for this substance: HWDFAWPWgsgYMDGTMSQV (HWDFAWPWGSGYMDGTMSQV; not fully specified; printed as HWDFAWPWgsgYMDGTMSQV)
4.54

Look up pKd for this substance: YMLDLQPETTgsgHWDFAWPW (YMLDLQPETTGSGHWDFAWPW) [HPV16 E7 (11-20) + HWDFAWPW]
4.57

Look up pKd for this substance: SIINFEKLgsgHWDFAWPW (SIINFEKLGSGHWDFAWPW; not fully specified; printed as SIINFEKLgsgHWDFAWPW) [OVA + HWDFAWPW]
4.40

Look up pKd for this substance: HWDFAWPWgsgSIINFEKL (HWDFAWPWGSGSIINFEKL; not fully specified; printed as HWDFAWPWgsgSIINFEKL)
5.37

Look up pKd for this substance: HWDFAWPW
3.92

Look up pKd for this substance: ALFDIESKVgsgHWDFAWPW (ALFDIESKVGSGHWDFAWPW; not fully specified; printed as ALFDIESKVgsgHWDFAWPW) [PSMA P2 + HWDFAWPW]
4.66
